Measured Phage binding ELISA signal, Anti-PSMA Fab in presence of PSMA by item
target: T1, PSMA Fab; assay: clonal phage ELISA; biotinylated PSMA Fab on neutravidin plate, wells pre-incubated with PSMA antigen as competitor; anti-M13 HRP detection;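 further: crude clonal phage supernatants added to antigen-treated wells without a wash, incubated briefly, then bound phage read out via horse radish–conjugated anti-M13 antibody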
T1 construct: also called Anti-PSMA Fab; 006 PSMA Fab
Just the number, please, no unit attached.

Recorded Phage binding ELISA signal, Anti-PSMA Fab in presence of PSMA, per entry:
{"binder": "EYQVCKPTWMCTGF [Phage-3266]", "measurement": 0.0904}
{"binder": "YGALCVPAWMCSGF [Phage-3254]", "measurement": 0.0866}
{"binder": "AEMRCIPQWMCSGL [Phage-3259]", "measurement": 0.138}

Prompt: Quick one: Phage binding ELISA signal, Anti-PSMA Fab in presence of PSMA for ENVRCEPMWMCKGF [Phage-3260] ?
Response: 0.0648
